List of kon values.
- TARGET OR TEST SYSTEM: T1, HUMAN B7H3 (Biacore analyte) (human, UniProt Q5ZPR3 29-461, limits assumed)
- T1 construct: also called hB7H3
- T1 sequence (looked up): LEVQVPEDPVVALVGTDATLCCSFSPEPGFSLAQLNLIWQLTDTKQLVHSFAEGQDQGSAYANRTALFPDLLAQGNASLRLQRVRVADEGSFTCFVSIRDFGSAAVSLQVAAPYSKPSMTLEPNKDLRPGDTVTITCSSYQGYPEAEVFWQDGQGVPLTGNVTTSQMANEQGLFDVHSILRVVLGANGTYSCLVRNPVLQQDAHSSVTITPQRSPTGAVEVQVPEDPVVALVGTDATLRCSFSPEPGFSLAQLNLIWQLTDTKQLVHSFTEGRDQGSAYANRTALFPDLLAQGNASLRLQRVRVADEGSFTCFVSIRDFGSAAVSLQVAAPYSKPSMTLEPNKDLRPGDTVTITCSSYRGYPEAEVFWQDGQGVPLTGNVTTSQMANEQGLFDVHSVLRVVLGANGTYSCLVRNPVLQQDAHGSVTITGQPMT
- PROTOCOL NOTES: SPR, Biacore 8K, antibody captured, B7H3 as analyte, 1:1 binding
Please state the figure in M⁻¹ s⁻¹; there is no need to write the unit.

Before answering, review these 2 worked examples.
7-E1-F8-F6 (human IgG1 chimeric antibody) (antibody, V domains shown, human IgG1 chimeric antibody of the mouse clone) VH: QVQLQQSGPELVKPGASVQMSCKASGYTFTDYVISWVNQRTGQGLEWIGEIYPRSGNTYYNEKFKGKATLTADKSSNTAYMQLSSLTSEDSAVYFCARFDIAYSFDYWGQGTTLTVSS VL: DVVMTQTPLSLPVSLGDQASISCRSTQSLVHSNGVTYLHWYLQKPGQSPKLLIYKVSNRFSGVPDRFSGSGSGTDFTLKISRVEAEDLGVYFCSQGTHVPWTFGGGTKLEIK; 260000
8-C3-E3-F3 (human IgG1 chimeric antibody) (antibody, V domains shown, human IgG1 chimeric antibody of the mouse clone) VH: EVQLVESGGGLVQPGGSLKLSCAASGFTFSNYGLSWVRLTPDKRLEVVATIGSYGGNTYYPDSVKGRFTISRDNAKNTLYLQMSSLKSEDTAIYYCARDIYYGNSEAWFAYWGQGTLVTVSA VL: DIVMTQAAFSNPVTLGTSASISCRSSKSLLHSNGITYLYWYLQKPGQSPQLLIYQMSNLASGVPDRFSSSGSETDFTLRISRVEAEDVGVYYCAQNLELPWTFGGGTKLEIK; 990000

Quick check: kon of 15-G1-D1-E3 (human IgG1 chimeric antibody) (antibody, V domains shown, human IgG1 chimeric antibody of the mouse clone) VH: QVQLQQPGAELVKPGTSVKLSCKASGYTFTSYWIHWVKQRPGQGLEWIGMIHPKSGTVDYNEKFKSKATLTADKSSNTAYMQLSSLTSEASVVYYCARGENYDYRPQFVYWGQGTLVTVSA VL: QLVLTQSSSASFSLGASAKLTCTLSSQHSTYTIEWYQQQPLKPPKYVMELKKDGSHRTGDGIPDRFSGSSSGADRYLSISNIQPEDEAIYICGVGDTIKEQFVYVFGGGTKVTVL ?
550000

// repeat for 6-D8-E7-A11 (human IgG1 chimeric antibody) (antibody, V domains shown, human IgG1 chimeric antibody of the mouse clone) VH: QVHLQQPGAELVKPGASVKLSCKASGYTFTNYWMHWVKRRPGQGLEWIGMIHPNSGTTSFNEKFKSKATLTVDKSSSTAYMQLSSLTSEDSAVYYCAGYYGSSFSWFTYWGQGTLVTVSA VL: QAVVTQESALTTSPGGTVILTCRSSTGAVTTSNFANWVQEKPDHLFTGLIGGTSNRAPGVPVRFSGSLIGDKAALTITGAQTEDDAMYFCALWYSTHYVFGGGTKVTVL and report
464000

// repeat for 25-D3-G4-C6 (human IgG1 chimeric antibody) (antibody, V domains shown, human IgG1 chimeric antibody of the mouse clone) VH: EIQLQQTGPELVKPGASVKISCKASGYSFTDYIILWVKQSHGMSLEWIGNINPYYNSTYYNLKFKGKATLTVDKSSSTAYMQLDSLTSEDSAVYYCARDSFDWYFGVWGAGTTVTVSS VL: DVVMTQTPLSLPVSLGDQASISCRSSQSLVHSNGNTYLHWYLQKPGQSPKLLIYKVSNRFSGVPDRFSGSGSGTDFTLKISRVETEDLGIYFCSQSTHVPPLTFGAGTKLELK and report
108000

// repeat for 10-G6-C4-B2 (human IgG1 chimeric antibody) (antibody, V domains shown, human IgG1 chimeric antibody of the mouse clone) VH: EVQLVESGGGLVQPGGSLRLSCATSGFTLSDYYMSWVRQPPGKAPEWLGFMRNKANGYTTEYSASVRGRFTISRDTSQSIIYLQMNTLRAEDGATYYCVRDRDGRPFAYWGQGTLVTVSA VL: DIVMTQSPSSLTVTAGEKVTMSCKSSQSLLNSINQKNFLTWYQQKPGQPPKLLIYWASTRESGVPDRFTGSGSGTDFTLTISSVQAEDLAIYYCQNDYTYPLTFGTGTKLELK and report
252000

// repeat for 15-C8-B5-G7 (human IgG1 chimeric antibody) (antibody, V domains shown, human IgG1 chimeric antibody of the mouse clone) VH: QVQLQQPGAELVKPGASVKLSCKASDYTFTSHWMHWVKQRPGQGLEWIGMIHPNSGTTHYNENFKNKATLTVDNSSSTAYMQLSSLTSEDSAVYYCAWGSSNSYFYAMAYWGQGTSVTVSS VL: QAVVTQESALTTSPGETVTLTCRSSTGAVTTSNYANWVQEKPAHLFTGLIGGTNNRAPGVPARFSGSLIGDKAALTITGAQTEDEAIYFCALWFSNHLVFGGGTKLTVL and report
492000

// repeat for 16-G3-D10-C10 (human IgG1 chimeric antibody) (antibody, V domains shown, human IgG1 chimeric antibody of the mouse clone) VH: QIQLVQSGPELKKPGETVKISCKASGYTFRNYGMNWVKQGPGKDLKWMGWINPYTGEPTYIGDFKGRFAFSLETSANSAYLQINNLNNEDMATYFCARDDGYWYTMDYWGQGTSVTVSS VL: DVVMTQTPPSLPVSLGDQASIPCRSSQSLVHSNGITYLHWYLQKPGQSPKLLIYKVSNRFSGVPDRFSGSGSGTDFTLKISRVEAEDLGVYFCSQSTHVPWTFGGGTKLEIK and report
185000

Origin of values: patent US20240400689A1
